Test system: Zika virus NS2B-NS3 protease (unlinked)
experiment.notes: Optimization of GU AMC qHTS for Zika virus inhibitors: Unlinked NS2B-NS3 protease assay (AID 1347151); note: nearly all actives have a fitted effect of over 80% in size
assay.conditions: recombinant ZIKV NS2B-NS3 protease, fluorogenic AMC substrate; series mostly up to 52.5 µM
Results filed as inconclusive are left out. Activity calls are given as the source filed them. Calls come from the whole dose curve; as a rule, active = well fitted inhibition curve with a large enough effect; inconclusive = small, poorly fitted or top-dose-only effect; inactive = no such curve, though single readings can be large or run the other way.
# valid calls are TRUE for active, FALSE for inactive; nothing else

1. COCc1nc2c([nH]1)c(=O)n(C)c(=O)n2CC(C)C ... FALSE
2. Nc1ccc(-c2ccc3ccccc3n2)cc1 ... TRUE
3. O=c1ccn([C@@H]2O[C@H](COP(=O)(O)OP(=O)(O)O)[C@@H](O)[C@H]2O)c(=O)[nH]1 ... FALSE
4. N[C@@H](CCC(=O)N[C@H](CSN=O)C(=O)NCC(=O)O)C(=O)O ... FALSE

Proceed to the following item.
Asked: Recorded call for Nc1ncnc2c1nc(Br)n2C1OC2COP(=O)(O)O[C@@H]2C1O (stereo not given in full) ?
Given back: FALSE

###

experiment.notes: qHTS for Inhibitors of ATXN expression: Validation of Cytotoxic Assay (AID 588349)
assay.conditions: cytotoxicity counter-screen for ATXN expression inhibitors, cell viability; series mostly up to 57.1 µM
Experimental: Spinocerebellar ataxia type 2 (SCA2) is a multisystem neurodegenerative disease caused by a dominantly-acting mutation leading to expansion of a polyQ domain in the ataxin-2 protein (ATXN2). […] […] cultured cells will be dosed with titrated compounds and incubated for 72 hr at 37 degrees C. Toxicity will be assessed using the CellTiter Glo kit (Promega), which uses intracellular ATP concentration as a viability marker.
Records with an inconclusive call do not appear. Active and inactive are the calls of the source. Calls follow the shape of the dose curve; as a rule, active = well fitted cell-killing curve with a large enough effect; inconclusive = small, poorly fitted or top-dose-only effect, or effect the other way; inactive = flat fitted curve, though single readings scatter.
assay.endpoint: outcome

Consider the reported outcome for these compounds:
1) Nc1nc2c(nc(Br)n2C2OC3COP(=O)(O)O[C@@H]3C2O)c(=O)[nH]1 (stereo partly specified) ... inactive
2) CCCn1c(=O)c(C)cn2nc(N)nc12 ... inactive
3) CC(=O)[C@H]1CCC2C3CC=C4C[C@@H](OS(=O)(=O)O)CC[C@]4(C)C3CC[C@@]21C (stereo partly specified) ... inactive
4) CCN(CC)CCOC(=O)c1cc(Cl)c(N)cc1OC ... inactive
5) CN1C2CCC1CC(OC(c1ccccc1)c1ccccc1)C2 (stereo unspecified) ... inactive

API: the following record is the query input.
Asked: // query outcome value for entry O=C(O)c1ccccc1Nc1ccccc1
Given back: inactive

###

tested.on: D(1A) dopamine receptor (Homo sapiens)
experiment.notes: HTS Assay for Allosteric Agonists of the Human D1 Dopamine Receptor: Primary Screen for Antagonists (AID 488983);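 note: calcium flux response to an EC80 dopamine challenge measured with no-wash dye; nearly all actives have a fitted effect of over 65% in size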
assay.conditions: D1 receptor cell assay, antagonist mode, qHTS titration; series mostly up to 41.8 µM
Inconclusive results are not listed. Activity calls are given as the source filed them. Calls follow the shape of the dose curve; as a rule, active = well fitted inhibition curve with a large enough effect; inconclusive = small, poorly fitted or top-dose-only effect, or effect the other way; inactive = flat fitted curve, though single readings scatter.
# valid calls are active, inactive; nothing else

Examples from the recorded data:
1. NCCC1CCCC(CCN)N1 (configuration not stated) ... inactive
2. CCCCCC(O)CCCC(=O)O (configuration not stated) ... inactive
3. NCC(O)c1ccc(O)c(O)c1 (configuration not stated) ... active
4. Cn1c(=O)[nH]c2ncn(C)c2c1=O ... inactive
5. CC(C)NC[C@H](O)COc1ccc(CC(N)=O)cc1 ... inactive

Asked: Recorded call for COC(=O)C1=C(C)NC(C)=C([N+](=O)[O-])C1c1ccccc1C(F)(F)F (configuration not stated) ?
Given back: inactive

Asked: Recorded call for NC(C(=O)N[C@@H]1C(=O)N2C(C(=O)O)=C(Cl)CS[C@H]12)c1ccccc1 (some centres not stated) ?
Given back: inactive

Asked: Recorded call for O=c1[nH]c2ccccc2c2ccccc12 ?
Given back: inactive

Asked: Recorded call for NCCNS(=O)(=O)c1cccc2c(Cl)cccc12 ?
Given back: inactive
